Provide the recorded CC50 at 120 h for the entries that follow.
Measurement description: Cytotoxicity against in human MT4 cells after 5 days by XTT assay
Type: cell-based
Condition info: time 5 day

CC(C)OC(=O)[C@H](C)NP(=O)(CO[C@H](C)Cn1cnc2c(N)ncnc21)Oc1ccc(C[C@H](NC(=O)OCc2ccccc2)C(=O)OC(C)(C)C)cc1 (stereo partly specified); 6.6 µM

Count: 5. Required value per item: CC50 at 120 h.
1. CCC(CC)COC(=O)[C@H](Cc1ccc(O[P@](=O)(CO[C@H](C)Cn2cnc3c(N)ncnc32)N[C@@H](C)C(=O)OC(C)C)cc1)NC(=O)OCc1ccccc1
2. COC(=O)[C@H](Cc1ccc(O[P@](=O)(CO[C@H](C)Cn2cnc3c(N)ncnc32)N[C@@H](C)C(=O)OC(C)C)cc1)NC(=O)c1ccccc1
3. COC(=O)[C@H](Cc1ccc(O[P@](=O)(CO[C@H](C)Cn2cnc3c(N)ncnc32)N[C@@H](C)C(=O)OC(C)C)cc1)N1CCCC1
4. COC(=O)[C@H](Cc1ccc(O[P@@](=O)(CO[C@H](C)Cn2cnc3c(N)ncnc32)N[C@@H](C)C(=O)OC(C)C)cc1)NC(C)=O
5. CCOC(=O)[C@H](Cc1ccc(O[P@](=O)(CO[C@H](C)Cn2cnc3c(N)ncnc32)N[C@@H](C)C(=O)OC(C)C)cc1)NC(=O)OCc1ccccc1

1: 38 µM; 2: > 50 µM; 3: 24 µM; 4: > 50 µM; 5: 13 µM

----------
Measurement description: Cytotoxicity against in human MT4 cells after 5 days by XTT assay
Assay type: cell-based
Condition info: time 5 day
Record form. Attribute: CC50 at 120 h. Fill in for each entry.
Give bare numbers, in µM.

CC(C)OC(=O)[C@H](C)N[P@](=O)(CO[C@H](C)Cn1cnc2c(N)ncnc21)Oc1ccccc1.CC(C)OC(=O)[C@H](C)N[P@](=O)(CO[C@H](C)Cn1cnc2c(N)ncnc21)Oc1ccccc1.O=C(O)/C=C/C(=O)O [TENOFOVIR ALAFENAMIDE FUMARATE]; 35

Shifting focus to the compound that follows.
// Input: CC(C)OC(=O)[C@H](C)N[P@@](=O)(CO[C@H](C)Cn1cnc2c(N)ncnc21)Oc1ccc(C[C@H](NC(=O)OCc2ccccc2)C(=O)NC2CCCC2)cc1 . Output its CC50 at 120 h only. 17

----------
Measurement description: Cytotoxicity against in human MT4 cells after 5 days by XTT assay
Assay type: cell-based
Condition info: time 5 day
In plain terms, low CC50 at 120 h, meaning strictly below 10 µM, gives 1.0, and everything else gives 0.0.

Here's what some known entries look like.
CC(C)OC(=O)[C@H](C)N[P@@](=O)(CO[C@H](C)Cn1cnc2c(N)ncnc21)Oc1ccc(C[C@H](NCCCc2ccccc2)C(=O)CC2CCCC2)cc1; 1.0
COCCOCCOCCOC(=O)[C@H](Cc1ccc(OP(=O)(CO[C@H](C)Cn2cnc3c(N)ncnc32)N[C@@H](C)C(=O)OC(C)C)cc1)NC(=O)OCc1ccccc1 (stereo partly specified); 0.0
CC(C)OC(=O)[C@H](C)N[P@@](=O)(CO[C@H](C)Cn1cnc2c(N)ncnc21)Oc1ccc(C[C@H](NC(=O)OCc2ccccc2)C(=O)OC2CCCC2)cc1; 0.0
CC(C)OC(=O)[C@H](C)N[P@](=O)(CO[C@H](C)Cn1cnc2c(N)ncnc21)Oc1ccc(C[C@H](NC(=O)OCc2ccccc2)C(=O)NC2CCCC2)cc1; 0.0

Attention now turns to another entry.
Identify whether the molecule CC(C)OC(=O)[C@H](C)N[P@@](=O)(CO[C@H](C)Cn1cnc2c(N)ncnc21)Oc1ccc(C[C@H](NC(=O)OCc2ccccc2)C(=O)OC(C)C)cc1 records CC50 at 120 h below 10 µM. 0.0

Data origin: ChEMBL document CHEMBL4840358
